METHOD: gradient 5% acetonitrile 3 min, to 50% in 2 min, to 85% in 15 min, held 3 min, 100 µL/min
RUN CONDITIONS: column: Zorbax Extend-C18 2.1 x 50 mm; eluents: water / acetonitrile, 0.1% formic acid
REPORTED ENDPOINT: RP-LC retention time (s)

• O=C(CSc1nnc2c(=O)n(-c3ccc(Br)cc3)ccn12)c1ccccc1 = 866
• CC(=O)Nc1cccc(C(C(F)(F)F)C(F)(F)F)c1 = 778
• CC(C(=O)Nc1cccc(Cl)c1)C1CCN(C(=O)Nc2ccc(F)cc2)CC1 (stereo not given) = 933
• O=C1COc2cc(S(=O)(=O)N3CCCC3C(=O)Nc3ccccc3)c(Cl)cc2N1 (stereo not given) = 768
• COc1ccc(S(=O)(=O)N2CC3CN(C(=O)c4cc(C)oc4C)CC(C2)O3)cc1 = 785
• CCOc1ccccc1C(=O)NC1CCN(c2cc(-c3ccc(Cl)cc3)[nH]n2)C1 (stereo not given) = 879
• Fc1ccc(Nc2c(-c3ccc(Cl)cc3)nc3cnccn23)cc1 = 963
• COc1ccc(S(=O)(=O)NCc2ccc3c(c2)CCN3C(C)=O)cc1Cl = 779
• CC1CCC(NC(=O)C2CCCN(c3cn[nH]c(=O)c3)C2)CC1 (stereo not given) = 680
• Cc1cccc(S(=O)(=O)N(C)CC2CCOC2)c1 (stereo not given) = 811

###

METHOD: gradient 5% acetonitrile 3 min, to 50% in 2 min, to 85% in 15 min, held 3 min, 100 µL/min
RUN CONDITIONS: column: Zorbax Extend-C18 2.1 x 50 mm; eluents: water / acetonitrile, 0.1% formic acid
REPORTED ENDPOINT: RP-LC retention time (s)

* Cc1cccc(Sc2nccnc2N2CCCC(C(=O)NCc3ccc4c(c3)OCO4)C2)c1 (stereo not given) | 1030

a: CCOCCn1c(-c2ccccc2Cl)nc2ccccc21
b: Cc1ccc(-n2nc(N3CCCC(C(=O)NC4CCCCCCC4)C3)ccc2=O)cc1Cl (stereo not given)
QUERY: Between a and b , which one shows the larger RP-LC retention time value? Kindly give the label for the entry you pick.
RESULT: b

P: Cc1ccc(N2CCN(C(=O)c3cn4cc(Cl)ccc4n3)CC2)cc1
Q: CCC(C)(C)NS(=O)(=O)c1cccc(-c2nc(-c3ccc(C)cc3)no2)c1
QUERY: Kindly identify which of P and Q has the larger recorded RP-LC retention time value. Selection: enter the item's label.
RESULT: Q

A: C=CCc1ccccc1OCC(O)CNC(C)C (stereo not given)
B: O=C(CCc1nc(-c2ccc(N3CCCC3)cc2)no1)Nc1ccc(Br)cc1F
QUERY: Which shows the larger RP-LC retention time value: A or B ? Please respond with the label that marks your chosen entry.
RESULT: B

I: CCc1cccc(NC(=O)N2CCC(n3cnnc3C)CC2)c1
II: O=C(Nc1cccc(Cl)c1)N1CCc2nc(-c3ccccc3)ncc2C1
QUERY: Short answer wanted: higher RP-LC retention time, I or II ? The response must carry the label of the picked entry.
RESULT: II
(II: 997 s, I: 650 s)

P: CCN(CC)C(=O)c1ccc2nc(-c3ccc(C)c(C)c3)cn2c1
Q: Cc1nc(-c2ccccc2)cc2nn(CC(=O)Nc3cc(F)cc(F)c3)c(=O)n12
QUERY: Of the two listed items, which has the higher RP-LC retention time? First: P Second: Q // caller expects the label of the chosen entry
RESULT: Q

These entries and their values trace back to the METLIN SMRT retention time set (Domingo-Almenara et al. 2019).
